- target desc: human ETB receptor (Homo sapiens)
- Construct: expressed in transfected cells; host or cells: COS7 cells
- Sequence (P24530 27-442): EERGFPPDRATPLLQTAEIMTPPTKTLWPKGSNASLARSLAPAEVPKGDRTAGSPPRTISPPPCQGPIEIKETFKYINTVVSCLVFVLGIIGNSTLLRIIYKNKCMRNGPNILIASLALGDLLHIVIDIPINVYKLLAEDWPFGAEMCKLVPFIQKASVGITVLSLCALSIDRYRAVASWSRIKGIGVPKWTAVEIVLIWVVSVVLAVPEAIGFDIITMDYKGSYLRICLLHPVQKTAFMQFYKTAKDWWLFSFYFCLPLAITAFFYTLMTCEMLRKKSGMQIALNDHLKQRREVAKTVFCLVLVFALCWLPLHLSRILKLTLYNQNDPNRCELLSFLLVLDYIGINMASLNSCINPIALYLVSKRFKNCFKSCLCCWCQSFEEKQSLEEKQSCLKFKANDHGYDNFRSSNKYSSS
- method notes: Endothelin binding inhibition, Binding Test #2: competition with 125I-ET-1 for ETB receptors on transfected COS7 cell membranes
- protocol conditions: incubation at 24° C. (values marked †)
IC50 less than 7 µM is met; IC50 greater than or equal to 7 µM is not met.

Worked cases, answers included:
molecule_smiles=Cc1cc(C)c(NC(=O)c2sccc2S(=O)(=O)Nc2onc(C)c2Cl)c(C(N)=O)c1 group="not met"
molecule_smiles=Cc1noc(NS(=O)(=O)c2ccsc2N)c1Cl group=met
molecule_smiles=Cc1ccc(NC(=O)c2sccc2S(=O)(=O)Nc2onc(C)c2Cl)nc1 group="not met"

Request: Determine if Cc1ccc(/C=C/c2ccsc2S(=O)(=O)Nc2onc(C)c2Br)cc1 shows IC50 strictly lower than 7 µM.
Result: met

Request: API: query returns whether the compound falls strictly under 7 µM in IC50. Query: Cc1cc(C)c(NC(=O)c2sccc2S(=O)(=O)Nc2onc(C)c2C)c(C)c1CC#N
Result: not met

* * *

- target desc: human ETA receptors (Homo sapiens, UniProt P25101)
- Construct: endogenous in cells; host or cells: TE 671 cells (ATCC HTB 139), membrane preparation
- Sequence (P25101 21-427): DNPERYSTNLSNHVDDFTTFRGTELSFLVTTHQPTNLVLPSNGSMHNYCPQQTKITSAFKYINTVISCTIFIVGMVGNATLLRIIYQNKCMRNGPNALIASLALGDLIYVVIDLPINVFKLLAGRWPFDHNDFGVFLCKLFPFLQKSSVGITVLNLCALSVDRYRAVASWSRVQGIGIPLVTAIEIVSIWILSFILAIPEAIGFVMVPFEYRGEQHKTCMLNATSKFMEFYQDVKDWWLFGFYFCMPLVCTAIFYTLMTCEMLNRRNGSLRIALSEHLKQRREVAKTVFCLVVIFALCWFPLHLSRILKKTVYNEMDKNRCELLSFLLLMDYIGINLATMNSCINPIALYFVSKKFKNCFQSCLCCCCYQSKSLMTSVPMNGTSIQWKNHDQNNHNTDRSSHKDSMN
- method notes: Endothelin binding inhibition, Binding Test #1: competition with 125I-ET-1 for ETA receptors on TE 671 cell membranes
- protocol conditions: incubation at 24° C. (values marked †)
quantity kind: pIC50
Remember, pIC50 is on a log scale: it is -log10 of the molar concentration.

Some solved cases for reference:
compound=Cc1noc(NS(=O)(=O)c2ccsc2C(=O)OCCc2ccc3c(c2)OCO3)c1Cl target_desc="human ETA receptors (Homo sapiens, UniProt P25101)" endpoint_result=6.64
compound=Cc1ccc(-c2ccsc2S(=O)(=O)Nc2onc(C)c2Br)c(C)c1 target_desc="human ETA receptors (Homo sapiens, UniProt P25101)" endpoint_result=7.00
compound=COc1ccc(OC(=O)c2sccc2S(=O)(=O)Nc2onc(C)c2Br)cc1 target_desc="human ETA receptors (Homo sapiens, UniProt P25101)" endpoint_result=5.76
compound=Cc1noc(NS(=O)(=O)c2ccsc2C(=O)Oc2ccccc2)c1Cl target_desc="human ETA receptors (Homo sapiens, UniProt P25101)" endpoint_result=5.36
compound=Cc1cc(C)c(CC(=O)c2sccc2S(=O)(=O)Nc2onc(C)c2Cl)c(C)c1 target_desc="human ETA receptors (Homo sapiens, UniProt P25101)" endpoint_result=9.62
compound=Cc1cc(C)cc(CC(=O)c2sccc2S(=O)(=O)Nc2onc(C)c2Cl)c1 target_desc="human ETA receptors (Homo sapiens, UniProt P25101)" endpoint_result=7.35
compound=Cc1noc(NS(=O)(=O)c2sccc2Cc2ccc3c(c2)OCO3)c1Br target_desc="human ETA receptors (Homo sapiens, UniProt P25101)" endpoint_result=5.09
compound=Cc1ccc(OC(=O)c2sccc2S(=O)(=O)Nc2onc(C)c2C)c(C)c1 target_desc="human ETA receptors (Homo sapiens, UniProt P25101)" endpoint_result=6.56
compound=Cc1noc(NS(=O)(=O)c2ccc(C(=O)Nc3ccccc3)s2)c1Cl target_desc="human ETA receptors (Homo sapiens, UniProt P25101)" endpoint_result=4.55
compound="Cc1noc(NS(=O)(=O)c2ccsc2CC(c2ccc3c(c2)OCO3)N(C)C)c1Cl (centres unmarked)" target_desc="human ETA receptors (Homo sapiens, UniProt P25101)" endpoint_result=4.68

Proceeding to the next compound to report its pIC50.
What the record says about Cc1noc(NS(=O)(=O)c2ccsc2CCc2ccc3c(c2)OCO3)c1Br : pIC50 is 6.68
